- study_system: p53 Y220C mutant protein (amino acid residues 94-293) (Homo sapiens, UniProt P04637, Y220C)
- Construct: p53 Y220C mutant protein (amino acid residues 94-293)
- assay_info: Thermal Shift Assay (TSA), dTM
- Assay type: binding
- experimental_context: thermal shift, 100 uM compound; read-out: TSA P53 Y220C dTM (100 uM)
Where a name gives a salt, the structure may show the parent alone.
reported_endpoint: ΔTm at 100 µM

Examples with answers:
molecule	ΔTm at 100 µM
COc1cc(C(=O)NC(C)C)ccc1NCC#Cc1nc2c(N[C@@H]3CCN(C)C[C@@H]3F)cccn2c1SC(F)(F)F	≥ 10 °C
CNC(=O)c1ccc(NCC#Cc2nc3c(N[C@H]4CCC(=O)NC4)cccn3c2SC(F)(F)F)c(OC)c1	5 to 10 °C
COc1cc(S(C)(=O)=O)ccc1NCC#Cc1nc2c(NC3CCOCC3)cccn2c1CC(F)(F)F	≥ 10 °C
CNC(=O)N1CCC(Nc2cccn3c(CC(F)(F)F)c(C#CCNc4ccc(S(C)(=O)=O)cc4OC)nc23)CC1	5 to 10 °C
COc1cc(S(C)(=O)=O)ccc1NCC#Cc1nc2c(NC3CCN(C(C)C)CC3)cccn2c1CC(F)(F)F	≥ 10 °C
CNC(=O)c1ccc(NCC#Cc2nc3c(N[C@@H]4CCN(C)C(=O)C4)cccn3c2SC(F)(F)F)c(OC)c1	5 to 10 °C
CNC(=O)c1ccc(NCC#Cc2nc3c(N[C@H]4CCN(C)CC4(F)F)cccn3c2CC(F)(F)F)c(OC)c1 (single isomer, unassigned)	5 to 10 °C
COc1cc(S(C)(=O)=O)ccc1NCC#Cc1nc2c(NC3CCN(C)CC3)cc(O)cn2c1CC(F)(F)F [Example 27, TFA salt]	5 to 10 °C

Provide ΔTm at 100 µM for all items below, preserving their order.
1. CNC(=O)c1ccc(NCC#Cc2nc3c(N[C@H]4C[C@@H]5CC[C@@H](N5)[C@H]4F)cccn3c2SC(F)(F)F)c(OC)c1
2. CNC(=O)c1ccc(OC)c(NCC#Cc2nn3c(N[C@@H]4CCN(C)C[C@@H]4F)cccc3c2SC(F)F)c1
3. CCc1c(C#CCNc2ccc(S(C)(=O)=O)cc2OC)nc2c(N[C@@H]3CCN(C)C[C@@H]3F)cccn12

1. ≥ 10 °C
2. 5 to 10 °C
3. 5 to 10 °C

Items follow; give ΔTm at 100 µM for each.
1. COc1cc(C(=O)N(C)C)ccc1NCC#Cc1nc2c(N[C@@H]3CCN(C)C[C@@H]3F)cccn2c1SC(F)(F)F
2. COc1cc(C(=O)NC(C)C)ccc1NCC#Cc1nc2c(N[C@@H]3CCN(C)C[C@@H]3F)cccn2c1CC(F)(F)F
3. CNC(=O)c1ccc(OC)c(NCC#Cc2nc3c(N[C@@H]4CCNC[C@@H]4F)cccn3c2CC(F)(F)F)c1

1: ≥ 10 °C; 2: ≥ 10 °C; 3: ≥ 10 °C

Values from patent US20260374766A1
